Data origin: PubChem BioAssay (NCI)

# System: SNB-19 CNS
# testSummary: NCI tumour cell line growth inhibition, 48 h
measurementName: GI50

[[record]]
compound = "CCOc1cc(/C=C/C(=O)C(C(=O)/C=C/c2ccc(OC(=O)CNc3nnc(C)s3)c(OCC)c2)C(=O)CNc2nnc(C)s2)ccc1OC(=O)CNc1nnc(C)s1"
measurementname = "GI50"
endpointresult = "2.52 µM"


What measured GI50 goes with CCN(CC)CC(O)COc1c(Br)c(Br)c(Br)c2c1OC(C)(C)C2 (centres undefined) ? 9.22 µM

Return reported GI50; argument: `C/C(=N\O)c1cccc(Nc2cc(-c3ccccc3)nc3c(O)cccc23)c1` 1.13 µM

* * *

# Test system: ACHN renal
# testSummary: NCI tumour cell line growth inhibition, 48 h; in the data active = GI50 below about 0.43 µM; inactive = the rest
The reply should name one outcome from Y (active), N (inactive)

Worked cases, answers included:
[[record]]
molecule = "NCCCn1c2c(c3ccc([N+](=O)[O-])cc3c1=O)C(=O)c1cc(F)ccc1-2"
labelvalue = "Y"

[[record]]
molecule = "CCCCN(CC)CCCCCCCCCCN1CCCc2cc(OC)ccc21"
labelvalue = "N"


For `Brc1ccc(Nc2nc3ccccc3nc2Nc2ccc(Br)cc2)cc1` , which call appears in the assay record? N

Which outcome was entered for the molecule CCN1C(=O)N(CC)C2C1NC(=S)N2/N=C/C=C/c1ccccc1OC (centres undefined) in this test? Y

Fill in: this test's call for `N#Cc1c2ccccc2c2nnc3ccc(C(F)(F)F)cc3n12` is ___ N

// param item: `CCOc1cc(/C=C/C(=O)C(C(=O)/C=C/c2ccc(OC(=O)CNc3nnc(C)s3)c(OCC)c2)C(=O)CNc2nnc(C)s2)ccc1OC(=O)CNc1nnc(C)s1` ; yields the recorded call N

Tell me the recorded outcome of this test for `O=C(O)c1cn(C2CC2)c2cc(N3CCN(C(=O)Nc4nc(-c5ccc(Br)cc5)cs4)CC3)c(F)cc2c1=O` . N

Per the records of this test, what outcome belongs to CC(=O)OCC1OC([Se-])C(OC(C)=O)C(OC(C)=O)C1OC(C)=O.N#CCC[PH+](CCC#N)CCC#N.[Au+] (centres undefined) ? N

Recorded call for `O=C1C(=C([O-])c2ccccc2)C(=O)c2ccccc21.O=C1C(=C([O-])c2ccccc2)C(=O)c2ccccc21.[Co+2]` ? N

* * *

We begin with a simple list: items and their reported TGI.
# System: CCRF-CEM leukemia
# testSummary: NCI tumour cell line growth inhibition, 48 h

As a guide, the following entries are already answered.
[[record]]
molecule = "S=C(Nc1ccc2c(c1)oc1ccccc12)c1cccs1"
measurementname = "TGI"
endpointresult = "> 100 µM"

[[record]]
molecule = "FC(F)(F)c1ccc(-c2ncc(-c3ccc(C(F)(F)F)cc3)c(NCc3cc(C(F)(F)F)cc(C(F)(F)F)c3)n2)cc1"
measurementname = "TGI"
endpointresult = "> 100 µM"

[[record]]
molecule = "COc1cc2cc3c4cc(OC)c(OC)cc4cc[n+]3c(C)c2cc1OC"
measurementname = "TGI"
endpointresult = "> 100 µM"

[[record]]
molecule = "CN1CC=C(c2cccn2C)CC1"
measurementname = "TGI"
endpointresult = "> 100 µM"


Recorded TGI for `O=C(CCN1CCC(CCO)CC1)Nc1ccc2c(c1)C(=O)c1ccc(NC(=O)CCN3CCC(CCO)CC3)cc1C2=O` with CCRF-CEM leukemia, please? 42.5 µM

Please tell me: TGI of `c1ccc2cc(CNCCCCNCCCNCc3ccc4ccccc4c3)ccc2c1` , system CCRF-CEM leukemia? > 100 µM

// lookup TGI | system=CCRF-CEM leukemia | key= Cc1ccc(NC(=O)/C(=N\NC(N)=S)C(C#N)c2ccccc2C)cc1C (stereo not given) > 100 µM

Recorded TGI for `O=C([O-])CCc1ccccc1.O=C([O-])CCc1ccccc1.O=C([O-])CCc1ccccc1.O=C([O-])CCc1ccccc1.[Mo+2].[Mo+2]` with CCRF-CEM leukemia, please? > 100 µM

Observed TGI on CCRF-CEM leukemia for `COC(=O)[C@H](COC(C)(C)C)NC(=O)N[C@H](C)c1ccccc1` , please. > 100 µM

Form field: TGI recorded for `COc1cc(/C=C/C(=O)c2c(C)nc3ccccc3c2C)ccc1OCCCCOc1cc2c(cc1OC)C(=O)N1CCC[C@H]1C=N2` with CCRF-CEM leukemia (enter value) 1.48 µM

* * *

Overview of reported TGI across a group of compounds:
# Test system: NCI-H460 lung
# testSummary: NCI tumour cell line growth inhibition, 48 h
The response must be a number in µM with no trailing unit.

[[record]]
compound = "CN(C)CC1CCCCCCCCCCCCC(CN(C)C)C1=O (stereo not given)"
unitofmeasure = "µM"
endpointresult = 27.6


Please give the measured TGI for this compound: `FC(F)(F)c1ccc(-c2ncc(-c3ccc(C(F)(F)F)cc3)c(NCc3cc(C(F)(F)F)cc(C(F)(F)F)c3)n2)cc1` 79.4

TGI for `O=[N+]([O-])/C=C/c1cc2ccc3ccccc3c2[nH]1` ? 5.61

* * *

# Tested on: HL-60(TB) leukemia
# testSummary: NCI tumour cell line growth inhibition, 48 h; in the data active = GI50 below about 0.43 µM; inactive = the rest
Bench note: report the call from active, inactive

// below: answered compounds
[[record]]
compound = "CCOC(=O)Nc1ccc2c(c1)N(C(=O)CCN(CC)CC)c1ccccc1S2"
labelvalue = "inactive"

[[record]]
compound = "N#Cc1c2ccccc2c2nnc3ccccc3n12"
labelvalue = "inactive"

[[record]]
compound = "COc1cc(/C=C/C(=O)c2c(C)nc3ccccc3c2C)ccc1OCCCCOc1cc2c(cc1OC)C(=O)N1CCC[C@H]1C=N2"
labelvalue = "active"

[[record]]
compound = "C=C(CN1CCN(c2ccccc2C(F)(F)F)CC1)c1ccc(C(=O)Nc2ccccc2N)cc1"
labelvalue = "active"

[[record]]
compound = "NC(=O)CCc1ccccc1Oc1nccc(-c2c(-c3ccc(F)cc3)ncn2C2CCNCC2)n1"
labelvalue = "inactive"


Hey, what did the test say about `CCCCCCc1cc2cc(-c3csc(/C=C/c4ccccc4)n3)c(=O)oc2cc1O` ? inactive

State the result this test recorded for CCN(CC)CC(O)COc1c(Br)c(Br)c(Br)c2c1OC(C)(C)C2 (stereo unspecified) . inactive

Answer briefly: the call reported for `COc1cc2c(cc1OCCCCn1c(-c3cccs3)nc3ccccc31)N=C[C@@H]1CCCN1C2=O` in this assay. inactive

* * *

# Test system: XF 498 CNS
# testSummary: NCI tumour cell line growth inhibition, 48 h
measurementName: TGI

[[record]]
molecule = "CC(=O)Oc1ccc(Nn2c3ccccc3c3ccccc32)c(C)c1"
measuredtarget = "XF 498 CNS"
endpointresult = "77.3 µM"


What TGI value was documented for this molecule, `O=C(N/C=C/C=C/Sc1ccccc1)OCc1ccccc1` ? 43.9 µM

What measured TGI goes with O=C(Cc1ccccc1)NN1C(=O)C(Cl)C1c1cccc([N+](=O)[O-])c1 (configuration not stated) ? > 57.1 µM

Fill in the blank: the reported TGI of `Cn1c2cc([N+](=O)[O-])ccc2c(=O)c2c(O)cc3c(c21)C=CC(C)(C)O3` is ____. 47.7 µM

Data request, read-out TGI, for `CC(=O)CC(=O)NC=O` > 100 µM

# query: TGI of entry N#CC(/C(=N/NC(N)=S)C(=O)Nc1cccc(Cl)c1)c1ccccc1 (configuration not stated) > 100 µM

For C=C1c2[nH]c3ccccc3c2CC(C(=O)O)N1C(O)c1ccc(S(=O)(=O)O)cc1 (configuration not stated) , what is its reported TGI? > 100 µM

Reported TGI for `C=CC(=O)NCNC(=O)C=C` : what is it? > 100 µM

Please give the measured TGI for this molecule: CN(C)CCN(C)C(=O)C1CCCN1C(=O)OCc1ccccc1 (configuration not stated) > 100 µM

Consider the molecule `CCCCCCCCCC/C=C/C=O` and give its measured TGI. > 100 µM

What TGI value was documented for this molecule, COc1cc(C2C(C(=O)O)=C(COC(C)=O)Oc3cc4c(cc32)OCO4)cc(OC)c1OC(C)=O (configuration not stated) ? > 100 µM

Find the recorded TGI belonging to COC1=CC(=O)c2c(cc3c(c2O)-c2c(OC)cc4cc5c(c(O)c4c2OC(=O)CC(C)(O)C3)C(=O)CC(C)(O)C5)C1=O (configuration not stated) and report it. 3.23 µM

* * *

# Test system: SNB-75 CNS
# testSummary: NCI tumour cell line growth inhibition, 48 h
measurementName: log10(TGI) (log10 of the value in µM)
Note the log scale: values are log10 of TGI expressed in µM.

[[record]]
compound = "NC(=N\\N=C/c1ccc(Cl)cc1Cl)/C(N)=N\\N=C/c1ccc(Cl)cc1Cl"
measurementname = "log10(TGI)"
endpointresult = 1.13


Which value of log10(TGI) has been reported for `CCOc1cc(/C=C/C(=O)C(C(=O)/C=C/c2ccc(OC(=O)CNc3nnc(C)s3)c(OCC)c2)C(=O)CNc2nnc(C)s2)ccc1OC(=O)CNc1nnc(C)s1` in the records? 0.99

Give the measured log10(TGI) of C=CC(OC(=O)C(C)C)c1ccc(OC(=O)C(C)C)cc1 (stereo not given) . 1.46

// query log10(TGI) value for entry CC(C)(CN1CCCCC1)C(=O)CC(SCCN)c1ccc(Cl)cc1 (stereo not given) 0.75

Return reported log10(TGI); argument: `COc1ccc2c(c1)-c1nc(=O)n(CCCN(C)C)c3ccc([N+](=O)[O-])c(c13)N2` 0.93

Find the recorded log10(TGI) belonging to COC1=CC(=O)c2c(cc3c(c2O)-c2c(OC)cc4cc5c(c(O)c4c2OC(=O)CC(C)(O)C3)C(=O)CC(C)(O)C5)C1=O (stereo not given) and report it. 0.55

Consider the compound shown here: `O=C(/C=C/c1nnc2n(Cc3ccccc3)c(=O)c3c4c(sc3n12)CCCC4)c1ccccc1` What is its recorded log10(TGI)? 1.96

Given `c1ccc(-c2cn(-c3ccccc3)c(-c3ccccc3)n2)cc1` , state its recorded log10(TGI). 1.44

What value of measured log10(TGI) is listed for `CCCCCCc1cc2cc(-c3csc(/C=C/c4ccccc4)n3)c(=O)oc2cc1O` ? 1.42
